experiment_summary: Etoposide solubility in ethanol-water mixtures
Assay type: physicochemical
measurement_setup: absolute ethanol, 22 °C, organic solvent or mixture, thermodynamic from solid
metric: solubility at 24 h (µg/mL)
Respond with the bare value in µg/mL.

Could you share which solubility at 24 h value was measured for COc1cc([C@@H]2c3cc4c(cc3[C@@H](O[C@@H]3O[C@@H]5CO[C@@H](C)O[C@H]5[C@H](O)[C@H]3O)[C@H]3COC(=O)[C@H]23)OCO4)cc(OC)c1O [etoposide] ?
891

---

experiment_summary: Etoposide solubility in ethanol-water mixtures
Type: physicochemical
measurement_setup: water, 22 °C, thermodynamic from solid
metric: solubility at 24 h (µg/mL)
Respond with the bare value in µg/mL.

Could you share which solubility at 24 h value was measured for COc1cc([C@@H]2c3cc4c(cc3[C@@H](O[C@@H]3O[C@@H]5CO[C@@H](C)O[C@H]5[C@H](O)[C@H]3O)[C@H]3COC(=O)[C@H]23)OCO4)cc(OC)c1O [etoposide] ?
92.4

---

experiment_summary: Pharmacokinetic dose escalation study in rats
Format: in vivo, Sprague Dawley rats
measurement_setup: male, Sprague Dawley, rat, plasma, po, 20 mg/kg, Etoposide Bioavailability, group D: etoposide 20 mg/kg oral, no zosuquidar; mean ± SEM, n = 6
metric: bioavailability (%)
Respond with the bare value in %.

Could you share which bioavailability value was measured for COc1cc([C@@H]2c3cc4c(cc3[C@@H](O[C@@H]3O[C@@H]5CO[C@@H](C)O[C@H]5[C@H](O)[C@H]3O)[C@H]3COC(=O)[C@H]23)OCO4)cc(OC)c1O [etoposide] ?
5.5

---

experiment_summary: Bidirectional etoposide permeability across Caco-2 cell monolayers
Format: in vitro ADME
measurement_setup: human, Caco-2, pH 7.4
metric: recovery at 120 min, 50 µM

Could you share which recovery at 120 min, 50 µM value was measured for COc1cc([C@@H]2c3cc4c(cc3[C@@H](O[C@@H]3O[C@@H]5CO[C@@H](C)O[C@H]5[C@H](O)[C@H]3O)[C@H]3COC(=O)[C@H]23)OCO4)cc(OC)c1O [etoposide] ?
95 to 117%

---

experiment_summary: Pharmacokinetic dose escalation study in rats
Type: in vivo, Sprague Dawley rats
measurement_setup: male, Sprague Dawley, rat, plasma, po, 20 mg/kg, Etoposide Bioavailability, group I: etoposide 20 mg/kg oral + zosuquidar 20 mg/kg oral; mean ± SEM, n = 6
metric: bioavailability (%)
Respond with the bare value in %.

Could you share which bioavailability value was measured for COc1cc([C@@H]2c3cc4c(cc3[C@@H](O[C@@H]3O[C@@H]5CO[C@@H](C)O[C@H]5[C@H](O)[C@H]3O)[C@H]3COC(=O)[C@H]23)OCO4)cc(OC)c1O [etoposide] ?
20.5

---

experiment_summary: Etoposide solubility in ethanol-water mixtures
Assay type: physicochemical
measurement_setup: ethanol-water mixture, 22 °C, thermodynamic from solid
metric: solubility at 24 h (µg/mL)
Respond with the bare value in µg/mL.

Could you share which solubility at 24 h value was measured for COc1cc([C@@H]2c3cc4c(cc3[C@@H](O[C@@H]3O[C@@H]5CO[C@@H](C)O[C@H]5[C@H](O)[C@H]3O)[C@H]3COC(=O)[C@H]23)OCO4)cc(OC)c1O [etoposide] ?
9230

---

experiment_summary: Pharmacokinetic dose escalation study in rats
Type: in vivo, Sprague Dawley rats
measurement_setup: male, Sprague Dawley, rat, plasma, po, 20 mg/kg, Etoposide AUC0-6h, group I: etoposide 20 mg/kg oral + zosuquidar 20 mg/kg oral; mean ± SEM, n = 6
metric: AUC(0-t) (ng·h/mL)
Respond with the bare value in ng·h/mL.

Could you share which AUC(0-t) value was measured for COc1cc([C@@H]2c3cc4c(cc3[C@@H](O[C@@H]3O[C@@H]5CO[C@@H](C)O[C@H]5[C@H](O)[C@H]3O)[C@H]3COC(=O)[C@H]23)OCO4)cc(OC)c1O [etoposide] ?
3530
